PROTOCOL_NOTES: qHTS Assay for Lipid Storage Modulators in Drosophila S3 Cells;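 further: cells counted by Cell Tracker Red CMTPX staining in the red channel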
TEST_SETTINGS: BODIPY lipid droplet fluorescence, 18-24 h, cells fed with added oleic acid; measured here: cell count max response
Screen size: about 320,000 compounds; about 2,100 (0.66%) were called active. About 53% were inconclusive and are not listed. Shown is part of a subset that was picked to be rich in actives.
RESULT_TYPE: cell number change (%)

{"MOLECULE": "Cn1c(C(=O)OCC(=O)NCC2CCCO2)cc2sccc21 (stereo not given)", "VALUE_MEASURED": 0.161}
{"MOLECULE": "O=C(CCCn1c(=O)c2sccc2n(CC(=O)NCC2CCCO2)c1=O)NCc1ccco1 (stereo not given)", "VALUE_MEASURED": 3.33}
{"MOLECULE": "COc1cc(-c2noc(CCC(=O)NC3CCCC3)n2)cc(OC)c1OC", "VALUE_MEASURED": -0.87}
{"MOLECULE": "Cc1nn(-c2ccc(N3CCOCC3)nn2)c(C)c1CCC(=O)NCc1ccc(F)cc1", "VALUE_MEASURED": 2.75}
{"MOLECULE": "COc1ccc(C2CC3(CC(C)(C)NC(=S)N3)Oc3cc(O)cc(C)c32)cc1 (stereo not given)", "VALUE_MEASURED": -1.84}
{"MOLECULE": "Cc1ccc(NS(=O)(=O)c2ccc(C(=O)NCc3ccccn3)cc2)cc1", "VALUE_MEASURED": 0.232}
{"MOLECULE": "CCOc1ccccc1Oc1nc(-c2ccccc2O)nc2ccccc12", "VALUE_MEASURED": 16.3}
{"MOLECULE": "Cc1c(C(=O)N2CCN(CCc3ccccn3)CC2)oc2ccc(F)cc12", "VALUE_MEASURED": 0.99}
{"MOLECULE": "COc1cccc(N(CC(=O)NCCSCc2ccc(Cl)cc2)S(C)(=O)=O)c1", "VALUE_MEASURED": -16.4}
{"MOLECULE": "CC(=O)NCCC(=O)Nc1ncc(S(=O)(=O)c2ccc([N+](=O)[O-])cc2)s1", "VALUE_MEASURED": 18.8}
{"MOLECULE": "COCCCn1c(=O)c2sccc2n2c(CCCC(=O)NCc3ccccc3)nnc12", "VALUE_MEASURED": 12.6}
{"MOLECULE": "Cc1cc(S(=O)(=O)NCc2ccccc2)ccc1OCC(=O)NCc1ccccn1", "VALUE_MEASURED": 6.72}
{"MOLECULE": "CC(C)(C)Nc1c(-c2ccc(O)cc2)nc2ccc(Cl)cn12", "VALUE_MEASURED": 20.8}
{"MOLECULE": "Cc1ccc(S(=O)(=O)NCc2ccccc2)cc1C(=O)NCc1ccccn1", "VALUE_MEASURED": -8.5}
{"MOLECULE": "CCOc1cccc(OCCn2cnc3ccccc3c2=O)c1", "VALUE_MEASURED": 10.8}
{"MOLECULE": "O=C1C=CC(=O)N1Cc1ccccc1", "VALUE_MEASURED": -23.7}
{"MOLECULE": "COC(=O)C1=C(C)N(Cc2ccccc2)C(=NCc2cccc(Cl)c2)N[C@H]1c1cccc(F)c1", "VALUE_MEASURED": -27.7}
{"MOLECULE": "COc1ccc2cc3cc(C(=O)NCCN4CCN(c5ccccc5F)CC4)oc3nc2c1", "VALUE_MEASURED": -11.8}
{"MOLECULE": "O=C(CCNC(=O)N1CC(=O)Nc2ccccc21)Nc1ccc(Br)cc1F", "VALUE_MEASURED": -22.5}
{"MOLECULE": "O=C(O)CN1C(=O)SC(Nc2ccccc2)C1=O (stereo not given)", "VALUE_MEASURED": 7.54}
{"MOLECULE": "COc1ccc(Cl)cc1NC(=O)C(C)OC(=O)C1=NNC(=O)CC1 (stereo not given)", "VALUE_MEASURED": -0.986}
{"MOLECULE": "S=C(NCc1ccccc1)NCc1cccc(Cl)c1", "VALUE_MEASURED": 7.23}
{"MOLECULE": "CC(C)CCNC(=O)CCc1nnc(COc2ccccc2)o1", "VALUE_MEASURED": 3.37}
{"MOLECULE": "Cc1cc(O)cc2c1C(c1ccc(F)cc1)CC1(CC(C)(C)NC(=S)N1)O2 (stereo not given)", "VALUE_MEASURED": 11.1}
{"MOLECULE": "CC(=O)N/N=C(\\C)CC(=O)Nc1cccc2c1CCCC2", "VALUE_MEASURED": -11.4}
{"MOLECULE": "CCOc1ccc(N(CC(=O)NCCSCc2ccc(Cl)cc2)S(C)(=O)=O)cc1", "VALUE_MEASURED": -19.8}
{"MOLECULE": "COC(=O)c1ccc(Cc2ccccc2)o1", "VALUE_MEASURED": 0.155}
{"MOLECULE": "Cc1cc(=O)oc(C)c1C(=O)N1CCN(c2ccc(F)cc2)CC1", "VALUE_MEASURED": -3.9}
{"MOLECULE": "Cc1cc(S(=O)(=O)NCc2ccccc2)ccc1OCC(=O)NCc1ccncc1", "VALUE_MEASURED": 13.5}
{"MOLECULE": "Cn1c(=O)c2sccc2n2c(CCCC(=O)NCc3ccco3)nnc12", "VALUE_MEASURED": -10.3}
{"MOLECULE": "Cc1cccc(C(=O)Nc2sc3c(c2C#N)CCCCC3)c1", "VALUE_MEASURED": -20.2}
{"MOLECULE": "CN(CCCNC(=O)COc1cc(=O)n(C)c2ccccc12)Cc1ccccc1", "VALUE_MEASURED": 1.19}
{"MOLECULE": "CC(C)NS(=O)(=O)c1ccc(CCC(=O)NCc2ccccn2)cc1", "VALUE_MEASURED": 6.74}
{"MOLECULE": "CCc1ccc(S(=O)(=O)/N=C2\\C=C(Nc3ccc(O)cc3)C(=O)c3ccccc32)cc1", "VALUE_MEASURED": 15.8}
{"MOLECULE": "CCc1ccc(OCC(=O)Nc2ccc3c(c2)COC3=O)cc1", "VALUE_MEASURED": 8.42}
{"MOLECULE": "COc1ccc(CC(=O)Nc2cccc3c2CCCC3)cc1", "VALUE_MEASURED": -12.6}
{"MOLECULE": "Cc1ccc(P(=O)(OCCN2CCOCC2)C(C)(C)C)o1 (stereo not given)", "VALUE_MEASURED": -0.698}
{"MOLECULE": "COc1cccc(Oc2cc(Cl)nc(N)n2)c1", "VALUE_MEASURED": -10.3}
{"MOLECULE": "CCOC(=O)C1=C(C)Nc2ccccc2N=C1NC(=O)/C=C/c1ccc(OC)cc1OC", "VALUE_MEASURED": 0.577}
{"MOLECULE": "CCOC(=O)CN1C(=O)SC(Nc2ccc(C)cc2)C1=O (stereo not given)", "VALUE_MEASURED": 0.723}
{"MOLECULE": "COc1ccc(-c2nnc3ccc(SCC(=O)Nc4cc(C)on4)nn23)cc1", "VALUE_MEASURED": 8.27}
{"MOLECULE": "c1ccc(CCCNCC2COc3ccccc3O2)cc1 (stereo not given)", "VALUE_MEASURED": 19.8}
{"MOLECULE": "COc1ccc(C2CC3(CC(C)(C)NC(SC)=N3)Oc3cc(O)cc(C)c32)cc1 (stereo not given)", "VALUE_MEASURED": 26.2}
{"MOLECULE": "O=C(O)c1ccc(S(=O)(=O)/N=C2\\C=C(Nc3ccccc3F)C(=O)c3ccccc32)cc1", "VALUE_MEASURED": 2.14}
{"MOLECULE": "COc1ccc(C(CCN2CCCC(C)C2)c2c(OC)cc(OC)c3c(C)cc(=O)oc23)cc1 (stereo not given)", "VALUE_MEASURED": 7.77}

All values here come from PubChem BioAssay AID2685.
